- System: MCF7
- experiment summary: SRB cytotoxicity assay
- Assay type: cell-based, human
- condition label: Homo sapiens, MCF7, 72 h, 72 h treatment
pIC50: −log10 of the molar value.
Quick reference for pIC50 among some compounds
measured endpoint: pIC50

Cc1ccc(COc2ccc(-c3noc(C)c3-c3ccc(Cl)cc3)cc2)c(C)c1 ... < 4.70
Cc1onc(-c2ccc(OCc3ccccc3)cc2)c1-c1ccc(Cl)cc1 ... < 4.70
Cc1ccccc1COc1ccc(-c2noc(C)c2-c2ccc(F)cc2)cc1 ... < 4.70
Cc1onc(-c2ccc(OCc3ccccc3Cl)cc2)c1-c1ccc(Cl)cc1 ... < 4.70
Cc1onc(-c2ccc(OCc3ccccc3C#N)cc2)c1-c1ccc(Cl)cc1 ... < 4.70
COc1ccccc1COc1ccc(-c2noc(C)c2-c2ccc(Cl)cc2)cc1 ... < 4.70
Cc1ccccc1COc1ccc(-c2c(-c3ccc(Cl)cc3)noc2C)cc1 ... < 4.70
Cc1onc(-c2ccc(OCc3ccc(C(F)(F)F)o3)cc2)c1-c1ccc(Cl)cc1 ... 4.85
Cc1cc(-c2ccc(OCc3ccccc3C)cc2)n(-c2ccc(Cl)cc2)n1 ... 4.92
Cc1ccccc1COc1ccc(-c2noc(C)c2-c2ccc(Cl)cc2)cc1 ... 5.42
Cc1ccccc1COc1ccc(-c2oncc2-c2ccc(Cl)cc2)cc1 ... ≤ 4.70
Cc1onc(-c2ccc(OCc3ccccc3F)cc2)c1-c1ccc(Cl)cc1 ... < 4.70
COc1ccc(-c2c(-c3ccc(OCc4ccccc4C)cc3)noc2C)cc1 ... 4.89
Cc1onc(-c2ccc(OCc3ccc(F)cc3)cc2)c1-c1ccc(Cl)cc1 ... 4.89
Cc1ccccc1COc1ccc(-c2ccnn2-c2ccc(Cl)cc2)cn1 ... < 4.70
Cc1onc(-c2ccc(OCc3ccc(C#N)cc3)cc2)c1-c1ccc(Cl)cc1 ... < 4.70
Cc1ccccc1COc1ccc(-c2noc(C)c2-c2ccc(N)cc2)cc1 ... 4.71
Cc1onc(-c2ccc(OCc3cncn3C(C)C)cc2)c1-c1ccc(Cl)cc1 ... 4.78
